Test system: RXF 393 renal
Assay: NCI tumour cell line growth inhibition, 48 h
Readout type: TGI

The following compounds have reported results that may help.
COc1cccc2[nH]c3c4c(c5c(c3c12)C(=O)N(CN1CCN(C)CC1)C5=O)CCC4 :: 13.6 µM
COc1cc(C(c2c(O)c3ccccc3oc2=O)c2c(O)c3ccccc3oc2=O)ccc1O :: 33.7 µM

Quote RXF 393 renal TGI for entry COc1ccc(C(=O)N2c3ccccc3N(C)n3cccc3C2CC(=O)O)cc1 (configuration not stated) .
> 100 µM

Tell me TGI of "CCc1n[nH]c(=O)n1/N=C/c1ccc(/C=N/n2c(CC)n[nH]c2=O)cc1" when tested on RXF 393 renal.
> 100 µM

Look up and report measured TGI (RXF 393 renal) for the following compound: "[N-]=[N+]=Nc1cc(=O)n(-c2ccccc2)c2ccccc12"
> 100 µM

Provide RXF 393 renal TGI reading for "O=C(O)c1ccc(C(=O)Nc2cccc3ccccc23)c(C(=O)O)c1" .
> 100 µM

# return TGI of "CCOC(=O)C1=c2[nH]c3cccc4cccc(c43)n2C(=O)CC1" (system: RXF 393 renal)
> 100 µM

---

System: SK-OV-3 ovarian
Assay: NCI tumour cell line growth inhibition, 48 h
Reported TGI is given for each of the following compounds.

CC(C)(C)/C(O)=C\c1nc2ccc(C(F)(F)F)cc2[nH]c1=O :: > 100 µM
CC(=O)OCC1OC(N2C(=O)NC(=O)C3C=C4CCCCC4=CC32)C(OC(C)=O)C1OC(C)=O (configuration not stated) :: > 100 µM
O=S(=O)(c1ccc(Cl)cc1)c1ccccc1C1=NCCN1 :: > 100 µM
C=C(Cl)C(Cl)(CBr)CCCC(C)(C)Cl (configuration not stated) :: > 100 µM
O=C(CCc1nnc2s/c(=C\c3ccccc3[N+](=O)[O-])c(=O)n12)Nc1cc(Cl)c(Cl)cc1Cl :: > 100 µM

Give a short answer stating reported TGI for "O=C(Cc1cc[n+]([O-])cc1)C(=O)Nc1cc(Cl)c(Cl)cc1Cl" .
> 100 µM

Answer with reported TGI of "COc1cc(C=C(c2ccc(N(C)C)cc2)c2ccc(N(C)C)cc2)c2ccccc2c1OC"
> 100 µM

Look up TGI of "CN(CCCN=C=S)CCCN1c2ccccc2CCc2ccccc21" and report it.
3.16 µM

Please supply the value of reported TGI for the item "COC(=O)Cc1cc2c(cc1C(=O)c1ccc(N)cc1)OCO2"
> 29.2 µM

State its TGI: "COc1cc(/C=C/C(=O)c2ccc(Nc3nc(NCCO)nc(N4CCOCC4)n3)cc2)cc(OC)c1OC"
27.5 µM

---

System: SF-268 CNS
Experiment: NCI tumour cell line growth inhibition, 48 h; in the data active = GI50 below about 0.43 µM; inactive = the rest
Parameter call: string, one of active, inactive

Previously resolved entries follow.
O=C1/C=C/[C@@H](O)[C@@H]2C[C@@H](O)C[C@H]2/C=C/CCC[C@H](CCOCc2ccccc2)O1 :: active
CNC(=O)c1ccccc1Nc1cc(Nc2ccc(N3CCOCC3)cc2OC)ncc1C(F)(F)F :: inactive
COc1cc(/C=C/C(=O)c2ccc(Nc3nc(NCCO)nc(N4CCOCC4)n3)cc2)cc(OC)c1OC :: inactive
O=C(Nc1ncc(Cc2ccccc2)s1)c1sc2ccccc2c1Cl :: inactive
COc1ccc(-c2cn[nH]c2-c2cc(OC)c(OC)c(OC)c2)cc1OCc1ccccc1 :: inactive
CCCCC(CCCCCC(CCCC)C1NC(C)Cc2cc(OC)c(OC)cc21)C1NC(C)Cc2cc(OC)c(OC)cc21 (centres undefined) :: inactive

Status in this test for "COc1cccc(C2=C(c3cn(C)c4ccc(Cl)cc34)C(=O)NC2=O)c1" ?
inactive

Could you please tell me the result logged for "CC[C@H](C)[C@H](NC(=O)c1ccccn1)C(=O)N(C)[C@H](C[C@@H](OC(C)=O)c1nc(C(=O)N[C@@H](Cc2ccccc2)C[C@H](C)C(=O)OC)cs1)C(C)C" in this assay?
inactive

I'd appreciate the recorded outcome for "C1C[OH+]CC[OH+]CC[OH+]CC[OH+]CC[OH+]CC[OH+]1.[Cl-].[V]" from this test.
inactive

Could you kindly confirm the outcome this assay logged for "OCCCCC#Cc1ccccc1C#Cc1ccccn1" ?
inactive

---

Test system: ACHN renal
Experiment: NCI tumour cell line growth inhibition, 48 h
In this section we review reported TGI values for a set of compounds.

O=C(Nc1ccc2[nH]c3ccccc3c2c1)c1ccccc1Cl :: > 100 µM
C[C@H]1[C@H](N2CCCC2)O[Si](C(C)(C)C)(C(C)(C)C)[C@@H]1C :: > 100 µM

Answer briefly: TGI recorded on ACHN renal for "COC(=O)[C@]12CC[C@H]3CN(C(=O)OCc4ccccc4)[C@H]([C@H]31)[C@H](c1ccccc1)N2"
> 100 µM

# return TGI for "O=C(O)c1ccc(C(=O)Nc2cccc3ccccc23)c(C(=O)O)c1" , test system: ACHN renal
> 100 µM

Write down measured TGI (ACHN renal) for this compound. "NS(=O)(=O)c1ccc(NC(=S)/N=C/c2c(O)c3ccccc3oc2=O)cc1"
> 100 µM

Please look at "CC[N+](CC)=c1cc2oc3cc(N(C)C)ccc3nc-2cc1C" and tell me its recorded TGI on ACHN renal.
> 100 µM

Lab note: record TGI of "Oc1c(Br)cc(Br)c2ccc(Cn3cc(-c4ccc(C(F)(F)F)cc4)nn3)nc12" tested on ACHN renal.
2.7 µM

Look up and report TGI, with ACHN renal as system, for "CSc1nc(-c2cc3ccccc3o2)cc(-c2ccc(Cl)cc2)c1C#N"
67.7 µM

---

Tested on: OVCAR-8 ovarian
Assay: NCI tumour cell line growth inhibition, 48 h; in the data active = GI50 below about 0.43 µM; inactive = the rest
// allowed return values: T = active, F = inactive

Use these answered entries as a reference point.
O=C(Nc1ccc2[nH]c3ccccc3c2c1)c1ccccc1Cl :: F
OCCCCC#Cc1ccccc1C#Cc1ccccn1 :: F
CCCC[C@H](NC(=O)[C@H]1CCCCN1C)C(=O)N(C)[C@H](C[C@@H](OC(C)=O)c1nc(C(=O)N[C@@H](Cc2ccccc2)C[C@H](C)C(=O)OCC)cs1)C(C)C :: T

I would be grateful if you could indicate the recorded call for "COc1cc(Nc2ccnc(NCCNc3ccnc4cc(Cl)ccc34)n2)cc(OC)c1" .
F

I'd appreciate the recorded outcome for "Oc1c(Br)cc(Br)c2ccc(Cn3cc(-c4ccc(C(F)(F)F)cc4)nn3)nc12" from this test.
F

Hello, I am checking results. What call was entered for c1cc[n+](C2c3ccccc3C([n+]3ccccc3)c3ccccc32)cc1 (centres undefined) ?
F

---

System: SF-295 CNS
Experiment: NCI tumour cell line growth inhibition, 48 h
Readout type: TGI

Fill in TGI for record "Clc1ccc2c(N3CCN(c4ccnc(NC5CCCCC5)n4)CC3)ccnc2c1"
3.79 µM

Give the reported TGI for this compound. "O=C1/C=C/[C@@H](O)[C@@H]2C[C@@H](O)C[C@H]2/C=C/CCC[C@H](CCOCc2ccccc2)O1"
> 100 µM

Quickly give me recorded TGI for COc1ccc(C(C)c2cc3c(cc2O)OCO3)cc1 (stereo not given)
35.3 µM

Fill in TGI for record "Cc1cc2c(O)c(c1)CN(Cc1ccccc1)Cc1cc(C)cc(c1O)CN(Cc1ccccc1)Cc1cc(C)cc(c1O)CN(Cc1ccccc1)C2"
> 100 µM

Return the recorded TGI value; entry: "Nc1nccc2c1ncn2[C@H]1C[C@H](O)[C@@H](CO)O1"
> 100 µM

---

System: UACC-257 melanoma
Experiment: NCI tumour cell line growth inhibition, 48 h
# TGI values compiled below
Kindly answer with a numeric value in µM, unit omitted.

Field: example entries. Status: answers known.
O=C1/C(=C\c2cccc(Oc3ccccc3)c2)SC(c2ccccc2)N1c1ccccc1Cl (stereo not drawn) :: 85.8
Cc1cc(C(=O)NCCN(C)C)c2nc3ccccc3cc2c1 :: 5.02
CCCC[C@H](NC(=O)[C@H]1CCCCN1C)C(=O)N(C)[C@H](C[C@@H](OC(C)=O)c1nc(C(=O)N[C@@H](Cc2ccccc2)C[C@H](C)C(=O)OCC)cs1)C(C)C :: 10.6
COc1cc(Nc2ccnc(NCCNc3ccnc4cc(Cl)ccc34)n2)cc(OC)c1 :: 3.87
O=C(c1ccc(Cl)c(Cl)c1)N1CCN(C(=O)c2ccc(Cl)c(Cl)c2)C1=S :: 35.6
Cc1nc2ccccc2nc1NNc1ccccc1 :: 74.3
C=CC(=O)N1CCN(CCCn2c(=O)c(-c3c(Cl)c(OC)cc(OC)c3Cl)cc3cnc(NC)nc32)CC1 :: 18
C=C(Cl)C(Cl)(CBr)CCCC(C)(C)Cl (stereo not drawn) :: 13.8

Alright, here's another compound for you.
Write down TGI measured for item "CN(C)CCCNc1ccnc2cccc([N+](=O)[O-])c12"
30.7

---

System: NCI/ADR-RES ovarian
Assay: NCI tumour cell line growth inhibition, 48 h
This section presents compounds with their documented GI50 values.

COc1ccc(/C(C)=C(\c2ccc(Cl)cc2)c2ccc(OCCN3CCCCC3)cc2)cc1 :: 4.79 µM
ClCc1ccccc1Cn1cnc2c(Cl)nc(Cl)nc21 :: 0.552 µM
O=C(C[n+]1cccc2cc(Cl)ccc21)c1ccc2c(c1)CCCC2 :: 19.9 µM
OCCCCC#Cc1ccccc1C#Cc1ccccn1 :: 27.3 µM
C[C@]12CC[C@@H]3c4ccc(O)cc4CC[C@H]3[C@@H]1CC[C@@H]2NS(=O)(=O)c1ccc(Cl)cc1 :: 4 µM

Supply recorded GI50 for "Nc1n[nH]c2cccc(C#Cc3cccc(NC(=O)c4ccc(N5CCOCC5)c(C(F)(F)F)c4)c3)c12" here.
2.25 µM

Assign GI50 to the following record: "CNC(=O)c1ccccc1Nc1cc(Nc2ccc(N3CCOCC3)cc2OC)ncc1C(F)(F)F"
2.82 µM

Assign GI50 to the following record: "Oc1c(Br)cc(Br)c2ccc(Cn3cc(-c4ccc(C(F)(F)F)cc4)nn3)nc12"
21.1 µM

// Input: "C=CC(=O)N1CCN(CCCn2c(=O)c(-c3c(Cl)c(OC)cc(OC)c3Cl)cc3cnc(NC)nc32)CC1" . Output its GI50 only.
7.12 µM

Provide one value: measured GI50 of "COc1ccc2cc(C#Cc3ccc(-n4c(/C=C/c5cc(OC)c(OC)c(OC)c5)nc5ccccc5c4=O)c(C)c3)ccc2c1"
> 100 µM

// Input: "CC[C@H](C)[C@H](NC(=O)c1ccccn1)C(=O)N(C)[C@H](C[C@@H](OC(C)=O)c1nc(C(=O)N[C@@H](Cc2ccccc2)C[C@H](C)C(=O)OC)cs1)C(C)C" . Output its GI50 only.
25.3 µM

Answer with reported GI50 of "Nc1ccc(S(=O)(=O)c2ccc(N)cc2)cc1"
> 100 µM

State its GI50: "COc1ccc(-c2cn[nH]c2-c2cc(OC)c(OC)c(OC)c2)cc1OCc1ccccc1"
2.52 µM

The reported numbers originate from PubChem BioAssay (NCI).
